- PROCEDURE DETAILS: pH titration of aqueous solution, UV-Vis absorption and steady-state fluorescence (pH dependence, pKa)
- Format: physicochemical
- CONDITION SUMMARY: aqueous solution (Milli-Q water); water, from absorption spectra at different pH (A / AH^+ equilibrium)
MEASUREMENT TYPE: pKa

Q) For the compound CC(C)NC(=Nc1ccc2c(c1)Cc1ccccc1-2)NC(C)C , give its measured pKa value.
A) 11.1
